# Tested on: Staphylococcus aureus
# assay-info: Antibacterial activity against Staphylococcus aureus MTCC 096 assessed as growth inhibition at 100 ug/mL after 14 hrs by cup plate method
# Assay type: functional
# condition-notes: MTCC 096, 14 h, read-out: DIZ
Measured zone of inhibition at 100 µg/mL of individual entries
reported-property: zone of inhibition at 100 µg/mL (mm)

Cc1cc(=O)oc2cc(OCCCCCCn3cc(CN4CCCC4)nn3)ccc12	13.6
Cc1cc(=O)oc2cc(OCCCCCCn3cc(CN4CCCCC4)nn3)ccc12	12.9
Cc1cc(=O)oc2cc(OCc3cn(CCN4C(=O)c5ccccc5C4=O)nn3)ccc12	13
Cc1cc(=O)oc2cc(OCc3cn(CCCN4C(=O)c5ccccc5C4=O)nn3)ccc12	12.8
Cc1cc(=O)oc2cc(OCCCCCCN=[N+]=[N-])ccc12	15.7
